Attribution: ChEMBL document CHEMBL1131008

target: Sigma 2 receptor; assay: Inhibition of [3H]-DTG binding to sigma-2 receptor of rat liver membranes with 1 uM dextrallorphan
Parameter: log10 of Ki. Scope: all listed entries.
Use the decimal logarithm of Ki (nM).

Answered cases to consult:
* O=S(=O)(NCCN1CCCC1)c1ccc(Br)cc1 | 3.17
* CCN(CC)CCNS(=O)(=O)c1ccc(Br)cc1 | 3.45
* CN(CCN1CCCCCC1)S(=O)(=O)c1ccc(I)cc1 | 1.37
* O=S(=O)(NCCN1CCCCCC1)c1ccc(Br)cc1 | 2.30
* O=S(=O)(NCCN1CCCCC1)c1ccc(I)cc1 | 2.31
* COc1ccc(S(=O)(=O)NCCN2CCCCC2)cc1I | 2.65

Form field log10 of Ki, entry O=S(=O)(NCCN1CCCCCC1)c1ccc(I)cc1 : 2.28

Entry O=S(=O)(NCCN1CCCC1)c1ccc(I)cc1 — recorded log10 of Ki = 3.00

Measured log10 of Ki, CCN(CC)CCNS(=O)(=O)c1ccc(I)cc1 : 3.38

Per the record, O=S(=O)(NCCN1CCCCC1)c1ccc(Br)cc1 has log10 of Ki of 2.66

Looking up CN(CCN1CCCCCC1)S(=O)(=O)c1ccc(Br)cc1 , I found its log10 of Ki recorded as 1.65

Value of measured log10 of Ki for the entry COc1ccc(S(=O)(=O)N(C)CCN2CCCCCC2)cc1I : 2.53
